experiment: Toxicity liver stage against HepG2, at 10uM; format: cell-based; design: test concentration 10 uM, cell line HepG2-A16-CD81EGFP; conditions: human, HepG2-A16-CD81EGFP cells; read-out: INHIBITION
// reported cytotoxicity at 10 µM for each item listed
PROPERTY: cytotoxicity at 10 µM (%)

• Cc1cc2ccccc2n1CCC(=O)NCCN(C)S(C)(=O)=O = 5.56
• Cc1nc2c(c(NC(C)C)n1)CCN(C(=O)CCO)CC2 = -109
• Cc1cc(C2CCCN(C(=O)COc3cc(F)ccc3F)C2)n[nH]1 (centres undefined) = -1.3
• Cc1ccc(CNC(=O)NC(C)Cn2cccn2)cn1 (centres undefined) = -11.2

###

test: Toxicity liver stage against HepG2, at 10uM; format: cell-based; design: test concentration 10 uM, cell line HepG2-A16-CD81EGFP; conditions: human, HepG2-A16-CD81EGFP cells; read-out: INHIBITION
PROPERTY: cytotoxicity at 10 µM (%)

* Cc1cc(F)c(S(=O)(=O)N(C)CCn2cccn2)cc1F | 0.532
* CS(=O)(=O)CCNCc1ccc(OCc2ccncc2)cc1 | -134
* CC(C)(C)OC(=O)NC1CCC(NC(=O)c2ccc[nH]2)CC1 (configuration not stated) | -17.1
* NC(=O)CN1CC2(CCC1=O)CCN(Cc1ccccc1F)CC2 | 1.81
* Cc1n[nH]c(C2CN(C(=O)c3ccn(C)c(=O)c3)CCO2)n1 (configuration not stated) | -5.3
* CCC(NC(=O)Nc1ccc(OC)c(C)c1)c1noc(C)n1 (configuration not stated) | -12
* COc1ccc(CCN2CCCC(n3cncn3)C2)cc1 (configuration not stated) | -6.2
* Fc1cccc(O[C@@H]2C[C@H]3CN(Cc4ccccn4)CCN3C2)c1 | -154
* Cc1nc(CN(C)C(=O)Nc2cccc(COC(C)C)c2C)no1 | 3.95
* CC(NC(=O)c1cccs1)C(=O)NCc1ccccn1 (configuration not stated) | -12.3
* O=C1O[C@@H]2CN(c3ccncc3)C[C@@H]2N1CCCc1ccc(F)cc1 | -3.73
* CCCc1cc(C(=O)NC(COC)c2ccnn2C)no1 (configuration not stated) | -6.14
* c1cncc(O[C@@H]2CC[C@H]3[C@H]2OCCN3C2CCCC2)c1 | 1.76
* Cn1cccc1C(=O)COc1ccc(S(N)(=O)=O)cc1 | 12.4
* c1ccc(CN2C[C@H]3CCC[C@@]3(COCC3CCOCC3)C2)nc1 | 1.49
* CCc1ccc2nc(C)cc(C(=O)NC[C@@H]3CCNC[C@H]3O)c2c1 | -3
* O[C@@H]1CN(c2cnc3ccccc3n2)CC[C@H]1c1ccc2c(c1)OCO2 | 22.4
* COc1ccccc1C1CC(=O)Nc2c1c(=O)[nH]n2C1CCCC1 (configuration not stated) | -3.85
* COCC(=O)N1CC[C@H]2OCC[C@@]2(c2nc(C)no2)C1 | -0.461
* COc1cccc2c1OCC(CNC(=O)CSc1ccccn1)C2 (configuration not stated) | -135
* Cn1c(CCCNC(=O)Nc2cn[nH]c2)nc2ccccc21 | 21.9
* CCOC(=O)C1(NC(=O)CCNc2cc(C)ccc2OC)CCCCC1 | 6.47
* CC(C1CC1)N(C)C(=O)c1ccc(-n2ncc(C#N)c2N)cc1 (configuration not stated) | 3.51
* O=C(c1cc(C2CC2)on1)N1CCC(Oc2ncccc2Cl)CC1 | 5.37
* CC(=O)N1CCN(c2cc(C)ncn2)CC(CO)C1 (configuration not stated) | 2.94
* O=c1[nH]c(-c2ccc(F)cc2)nc2c1CCNC2 | -2.47
* Cc1cc(C(=O)N2CCCC(n3cncn3)C2)c(C)n1CC1CC1 (configuration not stated) | 2.37
* CC(C)n1nccc1NC(=O)CN1CCc2sccc2C1 | 0.583
* Cc1ccc(S(=O)(=O)NCC(O)c2ccoc2)s1 (configuration not stated) | -8.18
* Cc1ccn(-c2ccc(NCc3ccccc3F)nn2)n1 | 3.66
* CN(Cc1ccc(O)cc1)C(=O)NCc1nnc2n1CCCCC2 | -11.1
* O=C(COc1ccc2c(c1)CCC2)N1CCOCC1c1ncon1 (configuration not stated) | -10.2

All figures here come from ChEMBL document CHEMBL4513216.
